Kindly state viability, T/C for each of the entries shown.
System: 616215-338-R-J1-PDC complex spheroid viability;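 note: spheroids exposed to compounds for one week before readout; percent viability relative to DMSO vehicle wells taken as 100%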
Assay method text: Anticancer human tumor 616215-338-R-J1-PDC patient-derived colon adenocarcinoma cell line growth inhibition [POLQ]
Assay conditions: second compound 0.0316 µM; first compound 1 µM; stronger effect = lower value

COc1cc(C2c3cc4c(cc3C(OC3OC5COC(C)OC5C(O)C3O)C3COC(=O)C23)OCO4)cc(OC)c1O (stereo not given) + Cc1cccc(N(C)C(=O)C2C(O)CCN2c2nc(C)cc(C(F)(F)F)c2C#N)c1 : 94%
COc1cccc(OCCCN)c1-c1cc(Nc2cnc(C#N)cn2)n[nH]1 + COC1C(OC(N)=O)C(O)C(Oc2ccc3c(O)c(NC(=O)c4ccc(O)c(CC=C(C)C)c4)c(=O)oc3c2C)OC1(C)C : 61%
C=CC(=O)N1CCN(c2nc(=O)n(-c3c(C)ccnc3C(C)C)c3nc(-c4c(O)cccc4F)c(F)cc23)C(C)C1 (stereo not given) + Cc1cccc(N(C)C(=O)C2C(O)CCN2c2nc(C)cc(C(F)(F)F)c2C#N)c1 : 109%
CCc1cc2c(N3CCc4c(cc(Cn5ccnc5)cc4-c4cn(C)nc4C(F)(F)F)C3=O)cc(C)nc2c(OC)n1 + Nc1ccc(C#CCN(C(=O)Cc2ncc(C(F)(F)F)cc2C(F)(F)F)c2ccc(F)cc2)nn1 : 62%

We next turn to a different compound, shown below.
Asked: I'd like to know its viability, T/C. The compound in question is CC1COCCN1c1cc(C2(O)CC3CCC(C2)O3)c2cnn(-c3ccn[nH]3)c2n1 (stereo not given) + COC1C(OC(N)=O)C(O)C(Oc2ccc3c(O)c(NC(=O)c4ccc(O)c(CC=C(C)C)c4)c(=O)oc3c2C)OC1(C)C
Given back: 64.1%
